Tested on: blood platelet aggregation
Assay: Inhibitory action on blood platelet aggregation (arachidonic acid aggregation in rich platelet plasma, nephelometry)
Format: cell-based
Conditions: arachidonic acid 0.1 mM; test drug added 1 minute before; listed as Ex. 23; read-out: Exp. 2 (IC50) inhibitory action on blood platelet aggregation
pIC50: −log10 of the molar value.

chemical string	pIC50
O=C(O)c1cc2cc(Cn3ccnc3)ccc2n1CCCN1CCN(C(c2ccccc2)c2ccccc2)CC1	4.47

====

Test system: synthesis of TXA2
Assay: Inhibitory action on synthesis of TXA2 (PGH2 substrate, aspirin-treated platelets, TXB2 by RIA)
Type: cell-based
Settings: Platelet, read-out: Exp. 1 (IC50) inhibitory action on synthesis of TXA2
readout: IC50

chemical string	target or test system	result
O=C(N1CCN(CCOC(c2ccccc2)c2ccccc2)CC1)N1CCc2cc(-n3ccnc3)ccc21	synthesis of TXA2	1500 nM
